assay_text: BSK_3C_TissueFactor: BioMAP Diversity Plus: 3C Assay for Tissue Factor Biomarker Activity (AID 2282997)
details: BioMAP 3C HUVEC, tissue factor biomarker readout; actives raise or lower the signal
Method: BSK_3C is a cell-based, multiplexed-readout assay that uses umbilical vein endothelium, a human vascular primary cell, with measurements taken at 24 hours after chemical dosing in a 96-well plate.BSK_3C_TissueFactor is an assay component measured in the BSK_3C assay. It measures Tissue Factor antibody related to regulation of gene expression using ELISA technology.Data from the assay component BSK_3C_TissueFactor was analyzed into 1 assay endpoint. […]
Active and inactive are the calls of the source. Rule for the calls: active = hit-call score of the fitted dose curve at least 0.9, where 1 is the maximum; inactive = score below 0.9.
Outcome codes: active, inactive

{"columns": ["molecule", "group_label"],
 "data": [
  ["CCC(C)c1cc([N+](=O)[O-])cc([N+](=O)[O-])c1OC(=O)OC(C)C (stereo unspecified)", "active"],
  ["CCCCCCC(CO)CCCC (stereo unspecified)", "inactive"],
  ["CC(C=O)Cc1ccc(C(C)(C)C)cc1 (stereo unspecified)", "active"],
  ["Clc1cc(Cl)c(-c2c(Cl)c(Cl)cc(Cl)c2Cl)cc1Cl", "active"],
  ["O=C(Nc1ccc2c(O)c(N=Nc3ccc(N=Nc4ccc(S(=O)(=O)O)cc4)cc3)c(S(=O)(=O)O)cc2c1)c1ccccc1", "inactive"],
  ["COc1ccc(CCN2CCC(Nc3nc4ccccc4n3Cc3ccc(F)cc3)CC2)cc1", "inactive"],
  ["c1ccc2cc(Nc3ccc(Nc4ccc5ccccc5c4)cc3)ccc2c1", "active"],
  ["O=C1OC[C@H](Cc2cccc(O)c2)[C@H]1Cc1cccc(O)c1", "inactive"],
  ["CC(CN=Cc1ccccc1O)N=Cc1ccccc1O (stereo unspecified)", "inactive"],
  ["CCCCCC(C=O)=Cc1ccccc1", "active"],
  ["CC(C)(C)CC(C)(C)c1ccc(OCCOCC[N+](C)(C)Cc2ccccc2)cc1", "active"]
]}

###

assay_text: ATG_EGR_CIS: Attagene CIS-FACTORIAL HepG2 Assay for human Early Growth Response 1 (EGR1) (AID 2282938)
details: HepG2 Attagene CIS-FACTORIAL EGR reporter mRNA; actives raise or lower the signal
Calls of active or inactive are those of the source. The calls were made as follows: active = hit-call score of the fitted dose curve at least 0.9, where 1 is the maximum; inactive = score below 0.9.
Outcome codes: label 1 for active, label 0 for inactive

{"columns": ["compound", "group_label"],
 "data": [
  ["CC(=O)CC(=O)Nc1ccc(C)cc1C", "label 0"],
  ["CCCCCCCC/C=C\\CCCCCCCC(=O)OCC", "label 0"],
  ["CC(C)(N=C=O)c1cccc(C(C)(C)N=C=O)c1", "label 0"],
  ["CCC(=O)OCCOc1ccccc1", "label 0"],
  ["CC(C)CCCCCCc1ccc(OCCOCCO)cc1", "label 0"],
  ["CC(=O)O[C@H]1C[C@@H]2CC[C@@]1(C)C2(C)C", "label 0"],
  ["COC(C)(C)CCCC(C)CC=O (stereo unspecified)", "label 0"],
  ["CC1C2CC(CC2C2CCCC(O)C2)C1(C)C (stereo unspecified)", "label 0"],
  ["CC[N+](C)(CC)CC", "label 0"],
  ["CCCN(CCC)S(=O)(=O)c1ccc(C(=O)O)cc1", "label 0"],
  ["Cc1cc(CCC(=O)OCCOCCOCCOC(=O)CCc2cc(C)c(O)c(C(C)(C)C)c2)cc(C(C)(C)C)c1O", "label 0"],
  ["CC(C)NCC(O)COc1ccc(CC(N)=O)cc1 (stereo unspecified)", "label 0"],
  ["c1ccc2cc(Nc3ccc(Nc4ccc5ccccc5c4)cc3)ccc2c1", "label 0"],
  ["CCCCCCCCCCCCCC(=O)OCC(O)CO (stereo unspecified)", "label 0"],
  ["CCCCCC(C)=O", "label 0"],
  ["O=C1NC2NC(=O)NC2N1 (stereo unspecified)", "label 0"],
  ["C=C(C)C(=O)OCCOCCOCCOC(=O)C(=C)C", "label 0"],
  ["CCOC(=O)CC(C)O (stereo unspecified)", "label 0"],
  ["C[C@H](CCC(=O)NCC(=O)O)[C@H]1CC[C@H]2[C@@H]3[C@H](O)C[C@@H]4C[C@H](O)CC[C@]4(C)[C@H]3C[C@H](O)[C@]12C", "label 0"],
  ["O=C(c1ccccc1)C(O)c1ccccc1 (stereo unspecified)", "label 0"],
  ["CCOC(=O)C(C#N)=C(c1ccccc1)c1ccccc1", "label 1"],
  ["COc1ccc(N)c([N+](=O)[O-])c1", "label 0"],
  ["CC(=O)O[C@@H]1CC2CCC1(C)C2(C)C (stereo partly specified)", "label 0"],
  ["CCCCCCOC(=O)C(C)C", "label 0"],
  ["COC(=O)c1ccc(C)cc1C1=NC(C)(C(C)C)C(=O)N1 (stereo unspecified) (tested in a mixture with another compound)", "label 0"],
  ["CCc1ccc(O)cc1", "label 0"],
  ["CCCCCCC(=O)c1ccccc1", "label 0"],
  ["O=C(O)c1cccnc1C(=O)O", "label 0"],
  ["C1=CC2C3C=CC(C3)C2C1 (stereo unspecified)", "label 0"],
  ["CCCCCCCCN1CCCC1=O", "label 0"],
  ["OCc1ccc(Cl)cc1Cl", "label 0"],
  ["Cc1ccc(S(N)(=O)=O)cc1", "label 0"],
  ["Nc1ccn([C@H]2CS[C@@H](CO)O2)c(=O)n1", "label 0"],
  ["Oc1ccc2cc(SSc3ccc4cc(O)ccc4c3)ccc2c1", "label 1"],
  ["COc1cc([C@@H]2c3cc4c(cc3[C@@H](O[C@@H]3O[C@@H]5CO[C@@H](C)O[C@H]5[C@H](O)[C@H]3O)[C@H]3COC(=O)[C@H]23)OCO4)cc(OC)c1O", "label 0"],
  ["CCCCCCCC(=O)OCC(O)CO (stereo unspecified)", "label 0"],
  ["Cc1ncc[nH]1", "label 0"],
  ["CC(C)c1ccccc1O", "label 0"],
  ["Cc1ncc([N+](=O)[O-])n1CCO", "label 0"],
  ["CCCCOCC", "label 0"],
  ["O=C(CC(=O)c1ccccc1)c1ccccc1", "label 1"],
  ["CCCCC(CC)COC(=O)c1ccc(O)cc1 (stereo unspecified)", "label 0"],
  ["CC(C)(C)c1ccc(C(=O)O)cc1", "label 0"],
  ["CCCC(=O)c1ccccc1", "label 0"],
  ["C#CC(C)(O)CC(C)C (stereo unspecified)", "label 0"],
  ["CCCC(O)C(O)CO (stereo unspecified)", "label 0"]
]}

###

assay_text: ACEA_AR_antagonist_AUC_viability: ACEA Biosciences xCELLigence Real-Time Cell Analysis on Androgen Receptor Antagonism for Viability (AID 2283776);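 note: 22Rv1 human prostate cancer cells growing on impedance electrode plates; area under impedance growth curve at 80 h after dosing as viability; hits lower the growth signal relative to DMSO meaning cytotoxicity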
Inconclusive results are not listed. Activity calls are given as the source filed them. Rule for the calls: active = hit-call score of the fitted dose curve at least 0.9, where 1 is the maximum; inconclusive = response in the unintended direction; inactive = score below 0.9.
readout_name: AC50

{"columns": ["compound", "readout_name", "observed"],
 "data": [
  ["COc1ccccc1N=Nc1c(S(=O)(=O)O)cc2cc(S(=O)(=O)O)cc(NC(C)=O)c2c1O", "AC50", "inactive"],
  ["CCCC(=O)OC(C)(C)Cc1ccccc1", "AC50", "inactive"],
  ["CCCCCCCCSCCO", "AC50", "inactive"],
  ["C=C1C[C@]23C[C@@]1(O)CC[C@H]2[C@@]12C=C[C@H](O)[C@@](C)(C(=O)O1)[C@H]2[C@@H]3C(=O)O", "AC50", "inactive"],
  ["C=CC(=O)OCCCC", "AC50", "inactive"],
  ["OCC(O)c1ccccc1 (stereo not given)", "AC50", "inactive"],
  ["O=C1OC(=O)c2c(Cl)c(Cl)c(Cl)c(Cl)c21", "AC50", "inactive"],
  ["CCCCC1CCC(O)CC1 (stereo not given)", "AC50", "inactive"],
  ["O=C1NC2NC(=O)NC2N1 (stereo not given)", "AC50", "inactive"],
  ["O=C(O)CCCCCCCCC(=O)O", "AC50", "2.07 µM (active)"],
  ["CC(=O)O[C@H]1C[C@@H]2CC[C@@]1(C)C2(C)C", "AC50", "inactive"],
  ["O=Cc1ccccc1S(=O)(=O)O", "AC50", "inactive"],
  ["CCCCC(CC)COC(C)=O (stereo not given)", "AC50", "inactive"],
  ["CCCOCCO", "AC50", "inactive"],
  ["C[C@H]1O[C@@H](O[C@H]2[C@@H](O)C[C@H](O[C@H]3[C@@H](O)C[C@H](O[C@H]4CC[C@@]5(C)[C@H](CC[C@@H]6[C@@H]5C[C@@H](O)[C@]5(C)[C@@H](C7=CC(=O)OC7)CC[C@]65O)C4)O[C@@H]3C)O[C@@H]2C)C[C@H](O)[C@@H]1O", "AC50", "0.0148 µM (active)"],
  ["CCc1cc(C(C)(C)C)c(O)c(C(C)(C)C)c1", "AC50", "inactive"],
  ["CCCCCCCC/C=C\\CCCCCCCC(=O)OCC", "AC50", "inactive"],
  ["CCOC(=O)C1OC1c1ccccc1 (stereo not given)", "AC50", "inactive"],
  ["CCCC(C)=O", "AC50", "inactive"],
  ["O=c1c(O)c(-c2ccc(O)cc2)oc2cc(O)cc(O)c12", "AC50", "4.77 µM (active)"],
  ["Cc1ccc(S(N)(=O)=O)cc1", "AC50", "inactive"],
  ["CN1C(=O)c2ccccc2C1=O", "AC50", "inactive"],
  ["CCc1ccc(O)cc1", "AC50", "inactive"],
  ["OC[C@H]1O[C@@H]2O[C@H]3[C@H](O)[C@@H](O)[C@@H](O[C@H]4[C@H](O)[C@@H](O)[C@@H](O[C@H]5[C@H](O)[C@@H](O)[C@@H](O[C@H]6[C@H](O)[C@@H](O)[C@@H](O[C@H]7[C@H](O)[C@@H](O)[C@@H](O[C@H]8[C@H](O)[C@@H](O)[C@@H](O[C@H]9[C@H](O)[C@@H](O)[C@@H](O[C@H]1[C@H](O)[C@H]2O)O[C@@H]9CO)O[C@@H]8CO)O[C@@H]7CO)O[C@@H]6CO)O[C@@H]5CO)O[C@@H]4CO)O[C@@H]3CO", "AC50", "inactive"],
  ["CN(C)c1cccc(O)c1", "AC50", "inactive"],
  ["CCCCCCCCCCCCCCN(CCO)CCO", "AC50", "28.4 µM (active)"],
  ["O=C(c1ccccc1)C(O)c1ccccc1 (stereo not given)", "AC50", "inactive"],
  ["O=P(O)(O)O", "AC50", "8.69 µM (active)"],
  ["CS(=O)(=O)OCCCCOS(C)(=O)=O", "AC50", "inactive"],
  ["CC(=O)O[C@@H]1CC2CCC1(C)C2(C)C (stereo not given in full)", "AC50", "inactive"]
]}
